Data credit: PubChem BioAssay AID2060910

Tested on: 242566-281-R-J2-PDC complex spheroid viability;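 further: spheroids exposed to compound for 7 days before readout; 100% = DMSO vehicle control wells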
PROTOCOL SUMMARY: Anticancer human tumor 242566-281-R-J2-PDC patient-derived pancreatic carcinoma cell line growth inhibition [RAS]
SETTINGS: second compound 0.0316 µM; first compound 0.1 µM; hits give low values
Task for the reader: assign each of the following molecules its reported viability, T/C.
// units = %; emit number, no label

The recorded viability, T/C with 242566-281-R-J2-PDC complex spheroid viability for C=CC(=O)Nc1cc(Nc2nccc(-c3cn(C)c4ccccc34)n2)c(OC)cc1N(C)CCN(C)C + C=CC(=O)N1CCN(c2nc(OCC3CCCN3C)nc3c(F)c(-c4nc(N)cc(C)c4C(F)(F)F)c(Cl)cc23)C(C)C1 was 91

Given the molecule CCN1CCN(Cc2ccc(Nc3ncc(F)c(-c4cc(F)c5nc(C)n(C(C)C)c5c4)n3)nc2)CC1 + C#Cc1c(F)ccc2cc(O)cc(-c3ncc4c(N5CC6CCC(C5)N6)nc(OCC56CCCN5CC(F)C6)nc4c3F)c12 and test system 242566-281-R-J2-PDC complex spheroid viability, the measured viability, T/C is 61.7

viability, T/C for 242566-281-R-J2-PDC complex spheroid viability with input CCN1CCN(Cc2ccc(Nc3ncc(F)c(-c4cc(F)c5nc(C)n(C(C)C)c5c4)n3)nc2)CC1 + C=CC(=O)N1CCN(c2nc(OCC3CCCN3C)nc3c(F)c(-c4nc(N)cc(C)c4C(F)(F)F)c(Cl)cc23)C(C)C1 equals 108

Cc1nc(N2CCC3(CC2)COC(C)C3N)c(CO)nc1Sc1ccnc(N)c1Cl (stereo not given) + C#Cc1c(F)ccc2cc(O)cc(-c3ncc4c(N5CC6CCC(C5)N6)nc(OCC56CCCN5CC(F)C6)nc4c3F)c12 on 242566-281-R-J2-PDC complex spheroid viability gives viability, T/C = 81

Form: item Cc1nc(N2CCC3(CC2)COC(C)C3N)c(CO)nc1Sc1ccnc(N)c1Cl (stereo not given) + C=CC(=O)N1CCN(c2nc(OCC3CCCN3C)nc3c(F)c(-c4nc(N)cc(C)c4C(F)(F)F)c(Cl)cc23)C(C)C1 ; test system 242566-281-R-J2-PDC complex spheroid viability; viability, T/C: 124
